# testedSystem: Prolyl endopeptidase (Homo sapiens) (UniProt P48147)
# Sequence (P48147 whole entry): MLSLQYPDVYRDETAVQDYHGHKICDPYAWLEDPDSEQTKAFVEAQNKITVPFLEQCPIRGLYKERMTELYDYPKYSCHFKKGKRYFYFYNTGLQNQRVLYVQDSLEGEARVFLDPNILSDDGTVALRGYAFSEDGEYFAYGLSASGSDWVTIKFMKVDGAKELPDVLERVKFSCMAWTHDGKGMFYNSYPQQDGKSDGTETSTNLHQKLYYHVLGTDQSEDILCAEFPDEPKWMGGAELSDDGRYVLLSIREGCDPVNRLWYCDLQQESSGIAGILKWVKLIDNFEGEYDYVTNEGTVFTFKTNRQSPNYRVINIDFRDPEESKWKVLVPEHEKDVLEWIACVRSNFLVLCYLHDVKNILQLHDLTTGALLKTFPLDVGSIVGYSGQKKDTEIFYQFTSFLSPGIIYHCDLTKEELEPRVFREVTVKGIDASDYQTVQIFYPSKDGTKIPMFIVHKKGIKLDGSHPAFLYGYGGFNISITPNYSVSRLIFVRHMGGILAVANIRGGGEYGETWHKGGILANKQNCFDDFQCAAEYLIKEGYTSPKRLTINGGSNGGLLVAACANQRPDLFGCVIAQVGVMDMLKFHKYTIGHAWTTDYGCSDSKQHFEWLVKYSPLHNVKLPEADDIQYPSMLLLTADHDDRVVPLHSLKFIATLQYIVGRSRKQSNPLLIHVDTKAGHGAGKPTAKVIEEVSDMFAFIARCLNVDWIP
# assayNotes: Effect on the activity of prolyl endopeptidase (PEP) is evaluated at 1 mM.
Attribute: Specificity
quantityKind: Specificity

INSERT INTO measurements (compound, result) VALUES
  ('Cl.O=C([C@H]1CCCN1)N1CCCC1P(=O)(Oc1ccccc1)Oc1ccccc1 (stereo not given in full)', 71),
  ('C[C@H](N)C(=O)Nc1ccc(OP(=O)(Oc2ccc(NC(=O)[C@@H](C)N)cc2)C2CCCN2C(=O)C2CCCN2)cc1.Cl (stereo not given in full)', 47),
  ('Cl.O=C(CNC(=O)c1ccccc1)Nc1ccc(OP(=O)(Oc2ccc(NC(=O)CNC(=O)c3ccccc3)cc2)C2CCCN2C(=O)C2CCCN2)cc1 (stereo not given)', 32),
  ('COC(=O)c1ccc(OP(=O)(Oc2ccc(C(=O)OC)cc2)C2CCCN2C(=O)C2CCCN2)cc1 (stereo not given)', 4),
  ('CCCNC(=O)c1ccc(OP(=O)(Oc2ccc(C(=O)NCCC)cc2)C2CCCN2C(=O)C2CCCN2)cc1.Cl (stereo not given)', 5),
  ('CS(=O)(=O)Nc1ccc(OP(=O)(Oc2ccc(NS(C)(=O)=O)cc2)C2CCCN2C(=O)C2CCCN2)cc1.Cl (stereo not given)', 4),
  ('CC(=O)Nc1ccc(OP(=O)(Oc2ccc(NC(C)=O)cc2)C2CCCN2C(=O)C2CCCN2)cc1.Cl (stereo not given)', 60),
  ('CCOC(=O)CNC(=O)c1ccc(OP(=O)(Oc2ccc(C(=O)NCC(=O)OCC)cc2)C2CCCN2C(=O)C2CCCN2)cc1.Cl (stereo not given)', 1),
  ('COC(=O)CCNC(=O)c1ccc(OP(=O)(Oc2ccc(C(=O)NCCC(=O)OC)cc2)C2CCCN2C(=O)C2CCCN2)cc1.Cl (stereo not given)', 0),
  ('COC(=O)C(Cc1ccc(OP(=O)(Oc2ccc(CC(NC(C)=O)C(=O)OC)cc2)C2CCCN2C(=O)C2CCCN2)cc1)NC(C)=O (stereo not given)', 35);
